Tested on: SC27B
Experiment: qHTS profiling for inhibitors of Plasmodium falciparum proliferation (AID 504749); also: nearly all actives have a fitted effect of over 60% in size
Settings: P. falciparum in erythrocytes, SYBR Green DNA, 72 h; series mostly up to 28.7 µM
Inconclusive results are not listed. Activity calls are given as the source filed them. Calls follow the shape of the dose curve; as a rule, active = well fitted inhibition curve with a large enough effect; inconclusive = small, poorly fitted or top-dose-only effect; inactive = flat fitted curve, though single readings scatter.
Outcome codes: label 1 (active), label 0 (inactive)

>>> answer_label("O=C1c2ccccc2C(=O)C1c1ccc(F)cc1")
"label 0"
>>> answer_label("NC(=O)Oc1ccc(Cc2ccccc2)cc1")
"label 0"
>>> answer_label("CCCc1ccc(C(=O)O)cc1")
"label 0"
>>> answer_label("CC1=CC(=C(c2ccc(N)cc2)c2ccc(N)cc2)C=CC1=N")
"label 1"
>>> answer_label("CC/C=C\\C/C=C\\C/C=C\\C/C=C\\C/C=C\\C/C=C\\CCC(=O)O")
"label 0"
>>> answer_label("CCC(O)c1ccccc1 (stereo not drawn)")
"label 0"
>>> answer_label("CCOc1ccc(S(=O)(=O)O)c2cccnc12")
"label 0"
>>> answer_label("O=C1NCCN1c1ncc([N+](=O)[O-])s1")
"label 0"
>>> answer_label("CC1CCC(NC(=O)N(CCCl)N=O)CC1 (stereo not drawn)")
"label 0"
>>> answer_label("CC(C)(Oc1ccc(C2CCCc3ccccc32)cc1)C(=O)O (stereo not drawn)")
"label 0"
>>> answer_label("CC(C)(C)CC(C)(C)c1ccc(OCCO)cc1")
"label 0"
>>> answer_label("NC(=O)[C@@H]1CCCN1C(=O)[C@H](Cc1cnc[nH]1)NC(=O)[C@@H]1CCC(=O)N1")
"label 0"
>>> answer_label("Cc1ccc(C(C)(C)c2ccc(C)cc2)cc1")
"label 0"
